Attribution: patent US12398154B2

# IC50 measurements, system: KRas WT (Homo sapiens);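 note: binding to KRas read as TR-FRET displacement after a one-hour room-temperature incubation, IC50 derived from percent-of-control values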
# Sequence (P01116 1-169 isoform P01116-2): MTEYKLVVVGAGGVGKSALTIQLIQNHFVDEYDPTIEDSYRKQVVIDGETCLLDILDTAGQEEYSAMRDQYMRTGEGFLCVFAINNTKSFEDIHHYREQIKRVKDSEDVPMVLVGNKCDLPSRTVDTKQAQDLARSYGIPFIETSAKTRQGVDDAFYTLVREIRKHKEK
Quantity Measured: IC50 (µM)

Worked examples, 2 compounds total:
Compound: Fc1c(-c2cccc3cccc(F)c23)ncc2c(NCCCc3cc[nH]n3)nc(OCC34CCCN3CCC4)nc12
Quantity Measured: IC50
Measure Unit: µM
Number: 4.29

Compound: Fc1c(-c2cccc3cccc(F)c23)ncc2c(N3CCCC4(CSC4)C3)nc(OCC34CCCN3CCC4)nc12
Quantity Measured: IC50
Measure Unit: µM
Number: 1.53

(a) O=C1CC2(CCCN(c3nc(OCC45CCCN4CCC5)nc4c(F)c(-c5cccc6cccc(F)c56)ncc34)C2)N1 (stereo not shown)
(b) OCc1n[nH]c(CNc2nc(OCC34CCCN3CCC4)nc3c(F)c(-c4cccc5cccc(Cl)c45)ncc23)n1
query: Hello, I am sorting some records. Could you say if a or b has the smaller IC50 value? State your choice using its label.
result: a
(a: 0.333 µM, b: 8.01 µM)

* * *

- Study Target: KRas G12D (Homo sapiens, UniProt P01116, G12D)
- Sequence (P01116 1-169 isoform P01116-2 G12D): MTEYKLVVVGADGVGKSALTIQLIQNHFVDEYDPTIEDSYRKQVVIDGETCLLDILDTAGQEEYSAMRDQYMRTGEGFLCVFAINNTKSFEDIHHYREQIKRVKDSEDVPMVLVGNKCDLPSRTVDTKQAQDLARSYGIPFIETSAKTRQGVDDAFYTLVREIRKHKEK
- Assay Details: biochemical
pIC50: −log10 of the molar value.
Quantity Measured: pIC50

Worked examples, 2 compounds total:
Compound: NC(=O)NC1CCCN(c2nc(OCC34CCCN3CCC4)nc3c(F)c(-c4cccc5cccc(F)c45)ncc23)C1 (stereo not drawn) [Example 241]
Number: 4.77
//
Compound: Fc1c(-c2cccc3cccc(F)c23)ncc2c(N3CCCC(c4cc[nH]n4)C3)nc(OCC34CCCN3CCC4)nc12 (stereo not drawn) [Example 131]
Number: 4.83

(I) CCc1c(F)ccc2cc(O)cc(-c3ncc4c(NC56CC(O)(C5)C6)nc(OC[C@@]56CCCN5C[C@H](F)C6)nc4c3F)c12 [Example 166]
(II) O=C1NCCC2(CCCN(c3nc(OCC45CCCN4CCC5)nc4c(F)c(-c5cccc6cccc(F)c56)ncc34)C2)N1 (stereo not drawn) [Example 72]
(III) CCc1c(F)ccc2cc(O)cc(-c3ncc4c(N5CCC[C@@]6(CNC(=O)C6)C5)nc(OC[C@]56CCCN5C[C@@H](O)C6)nc4c3F)c12 [Example 305]
(IV) CCc1c(F)ccc2cc(O)cc(-c3ncc4c(N5C[C@@H]6C[C@H](C5)[C@H](O)C6)nc(OCC5(CN6CCCC6)CC5)nc4c3F)c12 [Example 320]
query: Put the items in order so that reported pIC50 rises from first to last. Hello, could you send the labels back in the order asked? Thank you.
result: II, III, I, IV

* * *

- Study Target: KRas G12A (Homo sapiens, UniProt P01116, G12A)
- Sequence (P01116 1-169 isoform P01116-2 G12A): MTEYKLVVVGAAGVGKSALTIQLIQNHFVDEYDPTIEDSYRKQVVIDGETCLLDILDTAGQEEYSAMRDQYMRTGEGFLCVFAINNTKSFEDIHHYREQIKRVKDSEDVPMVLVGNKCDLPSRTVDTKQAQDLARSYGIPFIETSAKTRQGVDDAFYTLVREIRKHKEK
- Assay Details: biochemical
Quantity Measured: IC50 (nM)

(a) OCC1CN(c2nc(OCC34CCCN3CCC4)nc3c(F)c(-c4cccc5cccc(F)c45)ncc23)CCCO1 (stereo not shown) [Example 269]
(b) Cc1ccc2[nH]ncc2c1-c1ncc2c(N3CCCC(C)(O)C3)nc(OCC34CCCN3CCC4)nc2c1F (stereo not shown) [Example 430]
(c) NS(=O)(=O)CC1CCCN(c2nc(OCC34CCCN3CCC4)nc3c(F)c(-c4cccc5cccc(C(F)F)c45)ncc23)C1 (stereo not shown) [Example 463]
query: For the compounds shown above, give the order from largest IC50 to smallest. Hello, could you send the labels back in the order asked? Thank you.
result: b, c, a

* * *

- Study Target: KRas G12R (Homo sapiens, UniProt P01116, G12R)
- Sequence (P01116 1-169 isoform P01116-2 G12R): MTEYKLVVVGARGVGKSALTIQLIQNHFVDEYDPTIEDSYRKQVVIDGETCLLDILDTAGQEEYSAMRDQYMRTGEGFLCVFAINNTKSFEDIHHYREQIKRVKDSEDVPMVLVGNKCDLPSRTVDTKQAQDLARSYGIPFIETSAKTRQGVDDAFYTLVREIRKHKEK
- Assay Details: biochemical
Quantity Measured: IC50 (µM)

Worked examples, 5 compounds total:
Compound: CCc1c(F)ccc2cc(O)cc(-c3ncc4c(N5CCCC6(CCSC6)C5)nc(OC[C@@]56CCCN5C[C@H](F)C6)nc4c3F)c12 (stereo partly shown) [Example 476]
IC50, µM: 0.004

Compound: CCc1c(F)ccc2cc(O)cc(-c3ncc4c(N5C[C@H](O)C[C@@H](F)C5)nc(OC[C@@]56CCCN5C[C@H](F)C6)nc4c3F)c12 [Example 178]
IC50, µM: 0.014

Compound: Fc1c(-c2cccc3cccc(F)c23)ncc2c(NCc3ncc4cc[nH]c4n3)nc(OCC34CCCN3CCC4)nc12 [Example 92]
IC50, µM: 1.98

Compound: CCc1c(F)ccc2cc(O)cc(-c3ncc4c(N5C[C@@H]6C(=O)NNC(=O)[C@@H]6C5)nc(OC[C@@]56CCCN5C[C@H](F)C6)nc4c3F)c12 [Example 363]
IC50, µM: 0.01

Compound: O=c1[nH][nH]cc1CNc1nc(OCC23CCCN2CCC3)nc2c(F)c(-c3cccc4cccc(F)c34)ncc12 [Example 230]
IC50, µM: 9.85

(a) CCc1c(F)ccc2cc(O)cc(-c3ncc4c(NCCCc5ccncc5)nc(OC[C@@]56CCCN5C[C@H](F)C6)nc4c3F)c12 [Example 176]
(b) CCc1c(F)ccc2cccc(-c3ncc4c(N5CCC[C@@](C)(O)C5)nc(OCC56CCCN5CCC6)nc4c3F)c12 [Example 15]
(c) Fc1c(-c2cccc3cccc(F)c23)ncc2c(N3CCCc4ncccc4C3)nc(OCC34CCCN3CCC4)nc12 [Example 246]
(d) O=C1CC2(CCCN(c3nc(OCC45CCCN4CCC5)nc4c(F)c(-c5cccc6cccc(Cl)c56)ncc34)C2)N1 (stereo not shown) [Example 283]
(e) CCc1c(F)ccc2cc(O)cc(-c3ncc4c(N5CCC[C@@](C)(O)C5)nc(OC[C@@H]5C[C@@H](OC(=O)NC)CN5C)nc4c3F)c12 [Example 12]
query: Falling order of IC50, please. Hello, could you send the labels back in the order asked? Thank you.
result: c, d, b, a, e

* * *

- Study Target: KRas G12A (Homo sapiens, UniProt P01116, G12A)
- Assay Details: biochemical
Quantity Measured: IC50 (µM)

Worked examples, 3 compounds total:
Compound: O=C1NCC(CNc2nc(OCC34CCCN3CCC4)nc3c(F)c(-c4cccc5cccc(F)c45)ncc23)O1 (stereo not shown)
Measure Unit: µM
IC50: 9.28
//
Compound: NS(=O)(=O)CC1CCCN(c2nc(OCC34CCCN3CCC4)nc3c(F)c(-c4cccc5cccc(F)c45)ncc23)C1 (stereo not shown)
Measure Unit: µM
IC50: 0.271
//
Compound: O=C1NCC12CCCN(c1nc(OCC34CCCN3CCC4)nc3c(F)c(-c4cccc5cccc(F)c45)ncc13)C2 (stereo not shown)
Measure Unit: µM
IC50: 2.91

(A) Cc1cccc2cccc(-c3ncc4c(N5CCCC(CS(N)(=O)=O)C5)nc(OCC56CCCN5CCC6)nc4c3F)c12 (stereo not shown)
(B) Fc1c(-c2cccc3cccc(F)c23)ncc2c(N3CCCC(c4nc[nH]n4)C3)nc(OCC34CCCN3CCC4)nc12 (stereo not shown)
query: Between these two entries, A and B , state which has the higher IC50. State your choice using its label.
result: B

* * *

- Study Target: KRas G12R (Homo sapiens, UniProt P01116, G12R)
- Assay Details: biochemical
Quantity Measured: IC50 (nM)

Worked examples, 3 compounds total:
Compound: CCc1c(F)ccc2cc(O)cc(-c3ncc4c(NCC5CCNC5=O)nc(OC[C@@]56CCCN5C[C@H](F)C6)nc4c3F)c12 (stereo partly shown) [Example 368]
IC50, nM: 11
//
Compound: N#Cc1cccc2cccc(-c3ncc4c(N5CCCC6(CC(=O)N6)C5)nc(OCC56CCCN5CCC6)nc4c3F)c12 (stereo not shown) [Example 451]
IC50, nM: 4170
//
Compound: OC1CCN(c2nc(OCC34CCCN3CCC4)nc3c(F)c(-c4cccc5cccc(F)c45)ncc23)CC1 [Example 11]
IC50, nM: 40100

(I) C#Cc1cccc2cccc(-c3ncc4c(N5CCCC(CS(N)(=O)=O)C5)nc(OCC56CCCN5CCC6)nc4c3F)c12 (stereo not shown) [Example 437]
(II) CC1(CNc2nc(OCC34CCCN3CCC4)nc3c(F)c(-c4cccc5cccc(F)c45)ncc23)CNC(=O)C1 (stereo not shown) [Example 35]
(III) CS(=O)(=O)C1CCCCN(c2nc(OCC34CCCN3CCC4)nc3c(F)c(-c4cccc5cccc(F)c45)ncc23)C1 (stereo not shown) [Example 250]
(IV) O=C1NC(=O)C2(CCCN(c3nc(OCC45CCCN4CCC5)nc4c(F)c(-c5cccc6cccc(CF)c56)ncc34)C2)N1 (stereo not shown) [Example 462]
(V) OCC1CN(c2nc(OCC34CCCN3CCC4)nc3c(F)c(-c4cccc5cccc(F)c45)ncc23)CCCO1 (stereo not shown) [Example 269]
query: Put the items in order so that reported IC50 rises from first to last. Hello, could you send the labels back in the order asked? Thank you.
result: IV, V, II, I, III

* * *

- Study Target: KRas G12A (Homo sapiens, UniProt P01116, G12A)
- Assay Details: biochemical
Quantity Measured: IC50 (nM)

Worked examples, 2 compounds total:
Compound: Nc1cc2n(n1)CCCN(c1nc(OCC34CCCN3CCC4)nc3c(F)c(-c4cccc5cccc(F)c45)ncc13)C2
Study Target: KRas G12A (Homo sapiens, UniProt P01116, G12A)
Measure Unit: nM
IC50: 2200
//
Compound: Fc1c(-c2cccc3cccc(F)c23)ncc2c(N3CCCC4(CCC4)C3)nc(OCC34CCCN3CCC4)nc12
Study Target: KRas G12A (Homo sapiens, UniProt P01116, G12A);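 note: binding to KRas measured by TR-FRET displacement after one hour at room temperature, IC50 from a four-parameter fit of percent-of-control values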
Measure Unit: nM
IC50: 17300

(I) NC(=O)NC1CCN(c2nc(OCC34CCCN3CCC4)nc3c(F)c(-c4cccc5cccc(F)c45)ncc23)CC1
(II) CS(=O)(=O)C1CCCCN(c2nc(OCC34CCCN3CCC4)nc3c(F)c(-c4cccc5cccc(F)c45)ncc23)C1 (stereo not shown)
query: Hello, I am sorting some records. Could you say if I or II has the smaller IC50 value? State your choice using its label.
result: I
(I: 1050 nM, II: 3930 nM)
